Source of measurements: ChEMBL document CHEMBL1141497

Molecular target: Macrophage colony-stimulating factor 1 receptor (Homo sapiens, UniProt P07333)
Sequence (P07333 whole entry): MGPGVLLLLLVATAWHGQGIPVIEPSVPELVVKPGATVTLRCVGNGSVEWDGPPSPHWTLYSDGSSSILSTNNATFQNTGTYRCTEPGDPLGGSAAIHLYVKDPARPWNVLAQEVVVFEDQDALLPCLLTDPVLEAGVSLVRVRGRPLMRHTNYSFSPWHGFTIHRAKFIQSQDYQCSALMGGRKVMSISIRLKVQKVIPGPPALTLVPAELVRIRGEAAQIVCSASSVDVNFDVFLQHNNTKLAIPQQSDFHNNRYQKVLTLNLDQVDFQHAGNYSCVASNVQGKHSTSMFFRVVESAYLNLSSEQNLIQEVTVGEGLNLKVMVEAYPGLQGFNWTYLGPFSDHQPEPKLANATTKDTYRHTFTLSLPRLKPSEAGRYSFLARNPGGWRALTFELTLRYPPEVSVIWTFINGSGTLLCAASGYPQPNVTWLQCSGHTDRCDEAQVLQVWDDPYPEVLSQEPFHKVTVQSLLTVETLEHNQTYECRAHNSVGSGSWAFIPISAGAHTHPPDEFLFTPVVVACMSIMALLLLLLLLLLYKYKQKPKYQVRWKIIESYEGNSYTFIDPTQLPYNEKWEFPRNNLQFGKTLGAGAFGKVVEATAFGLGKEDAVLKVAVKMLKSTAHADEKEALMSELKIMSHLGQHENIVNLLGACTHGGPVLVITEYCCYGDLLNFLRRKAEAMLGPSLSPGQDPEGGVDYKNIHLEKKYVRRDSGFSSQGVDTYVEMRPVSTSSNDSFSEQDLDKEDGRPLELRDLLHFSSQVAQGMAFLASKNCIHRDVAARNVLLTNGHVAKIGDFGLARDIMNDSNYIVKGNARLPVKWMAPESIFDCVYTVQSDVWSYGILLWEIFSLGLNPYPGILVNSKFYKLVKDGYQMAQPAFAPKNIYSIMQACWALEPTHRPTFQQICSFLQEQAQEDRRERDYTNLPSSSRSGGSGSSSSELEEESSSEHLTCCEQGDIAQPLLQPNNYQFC
This section presents compounds with their documented IC50 values.
readout_name: IC50 (nM)

compound=Cc1cnn(-c2ccc(NC(=O)c3ccc(C#N)o3)c(N3CCCCC3)c2)c1 reading=64
compound="CN1CCN(c2ccc(NC(=O)c3ccc(C#N)o3)c(N3CCCC(F)C3)c2)CC1 (centres undefined)" reading=6.3
compound=CS(=O)(=O)Nc1ccc(NC(=O)c2ccc(C#N)o2)c(N2CCCCC2)c1 reading=71
compound=N#Cc1ccc(C(=O)Nc2ccc(-n3ccnc3)cc2N2CCCCC2)o1 reading=3

----------
Molecular target: High affinity nerve growth factor receptor (Homo sapiens)
Sequence (P04629 whole entry): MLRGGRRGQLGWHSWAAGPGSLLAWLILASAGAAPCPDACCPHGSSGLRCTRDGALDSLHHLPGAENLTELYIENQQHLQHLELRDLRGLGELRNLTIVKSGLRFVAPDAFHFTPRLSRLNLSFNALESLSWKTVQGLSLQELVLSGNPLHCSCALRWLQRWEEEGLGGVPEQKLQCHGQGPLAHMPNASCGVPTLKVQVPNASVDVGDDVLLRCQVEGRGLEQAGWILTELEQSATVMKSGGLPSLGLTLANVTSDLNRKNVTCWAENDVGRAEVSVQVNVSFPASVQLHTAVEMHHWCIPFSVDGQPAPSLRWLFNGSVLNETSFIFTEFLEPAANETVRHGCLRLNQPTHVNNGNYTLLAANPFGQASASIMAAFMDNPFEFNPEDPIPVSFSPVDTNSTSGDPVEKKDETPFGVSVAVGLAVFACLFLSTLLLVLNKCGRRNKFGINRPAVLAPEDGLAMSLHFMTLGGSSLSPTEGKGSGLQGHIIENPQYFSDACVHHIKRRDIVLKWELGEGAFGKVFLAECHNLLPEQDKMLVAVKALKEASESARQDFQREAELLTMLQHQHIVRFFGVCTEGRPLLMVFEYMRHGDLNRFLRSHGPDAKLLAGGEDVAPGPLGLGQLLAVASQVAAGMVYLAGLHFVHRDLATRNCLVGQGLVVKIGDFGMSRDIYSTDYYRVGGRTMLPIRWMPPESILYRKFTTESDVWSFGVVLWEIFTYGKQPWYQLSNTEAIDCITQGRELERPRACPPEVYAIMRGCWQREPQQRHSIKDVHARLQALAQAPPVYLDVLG
pIC50: −log10 of the molar value.
readout_name: pIC50

given_smiles=CC1CCN(c2cc(N3CCN(C)CC3)ccc2NC(=O)c2cc(C#N)c[nH]2)CC1 readout_name=pIC50 reading=7.96
